tested on: soybean (Glycine max); experiment: Test B pre-/postemergence plant response; type: in vivo; conditions: 62 g ai/ha, postemergence; 0 is no effect, 100 is complete control; 13 to 15 days
Readings of Soybean plant response rating (0 to 100 scale) for the listed molecules
Respond using a number only.

COCC(C)n1c(-c2ccccc2)ncc(C(=O)C2=C(O)CCCC2=O)c1=O (stereo not drawn) [Compound 107]    98

IN: Requested field: Soybean plant response rating (0 to 100 scale). Item: COCCn1c(-c2cccc(Cl)c2)ncc(C(=O)C2=C(O)CCCC2=O)c1=O [Compound 147]
OUT: 60

IN: Please give the measured Soybean plant response rating (0 to 100 scale) for this molecule: CCCn1c(-c2cccc(C(F)(F)F)c2)ncc(C(=O)C2=C(O)CCCC2=O)c1=O [Compound 155]
OUT: 95

IN: // lookup Soybean plant response rating (0 to 100 scale) for COCCn1c(-c2cccc(C)c2)ncc(C(=O)C2=C(O)CCCC2=O)c1=O [Compound 117]
OUT: 80

IN: Please look up its Soybean plant response rating (0 to 100 scale): COCCCn1c(-c2cccc(Br)c2)ncc(C(=O)C2=C(O)CCCC2=O)c1=O [Compound 140]
OUT: 60

IN: Name the reported Soybean plant response rating (0 to 100 scale) value associated with the molecule CCCc1ncc(C(=O)C2=C(O)CCCC2=O)c(=O)n1CC1CCCO1 (stereo not drawn) [Compound 74]
OUT: 75

IN: For the molecule shown here, COCCn1c(-c2ccccc2)ncc(C(=O)C2=C(O)CCCC2=O)c1=O [Compound 85] , give the reported Soybean plant response rating (0 to 100 scale).
OUT: 85

IN: Value lookup for Soybean plant response rating (0 to 100 scale); key = CCCCc1ncc(C(=O)C2=C(O)CCCC2=O)c(=O)n1-c1ccc(C)cc1 [Compound 67]
OUT: 90

IN: Consider the molecule shown here: CC(C)n1c(-c2ccccc2)ncc(C(=O)C2=C(O)CCCC2=O)c1=O [Compound 95] What is its recorded Soybean plant response rating (0 to 100 scale)?
OUT: 98

----------
Entries and their measured Plant response rating, Foxtail, Green follow.
test system: green foxtail (Setaria viridis); assay: Test B pre-/postemergence plant response; assay type: in vivo; details: Preemergence, 125 g ai/ha; scale 0 to 100, 0 no effect, 100 complete control
# respond with the number and nothing more

The cases that follow already have their Plant response rating, Foxtail, Green on record.
Cn1c(-c2ccccc2)ncc(C(=O)C2=C(O)CCCC2=O)c1=O    0
COCCCn1c(-c2cc(F)cc(F)c2)ncc(C(=O)C2=C(O)CCCC2=O)c1=O    100
CCCc1ncc(C(=O)C2=C(O)CCCC2=O)c(=O)n1CC1CCCO1 (centres unmarked)    0
CCc1ccc(-n2c(-c3ccccc3)ncc(C(=O)C3=C(O)CCCC3=O)c2=O)cc1    90

Please look at the following molecule next.
IN: Quick check: Plant response rating, Foxtail, Green of `COc1ccc(-n2c(-c3ccccc3)ncc(C(=O)C3=C(O)CCCC3=O)c2=O)cc1OC` ?
OUT: 80

----------
tested on: cocklebur (Xanthium strumarium); experiment: Test B pre-/postemergence plant response; assay type: in vivo; details: 31 g ai/ha, postemergence; scale 0 to 100, 0 is no effect, 100 is complete control
Rule: Plant response rating, Cocklebur under 80 gives F, otherwise T.

CC(C)CC(=O)OC1=C(C(=O)c2cnc(-c3ccccc3)n(-c3ccccc3)c2=O)C(=O)CCC1 [Compound 83]    F
COCCCn1c(-c2cccc(C)c2)ncc(C(=O)C2=C(O)CCCC2=O)c1=O [Compound 118]    F
Cc1ccccc1-c1ncc(C(=O)C2=C(O)CCCC2=O)c(=O)n1-c1ccccc1 [Compound 82]    T

IN: Please check the record O=C1CCCC(O)=C1C(=O)c1cnc(-c2cccc(Cl)c2)n(-c2ccc(Cl)cc2)c1=O [Compound 64] and state if its Plant response rating, Cocklebur is at or above 80.
OUT: T

IN: Hello, I need to know if Cc1ccc(-c2ncc(C(=O)C3=C(O)CCCC3=O)c(=O)n2-c2ccccc2)cc1 [Compound 80] has measured Plant response rating, Cocklebur not below 80. Thanks!
OUT: F
